The values you see were collected from patent US20190359697A1.

- MEASURED TARGET: T1, CD19 (UniProt P15391 20-556, limits assumed)
- T1 sequence (looked up): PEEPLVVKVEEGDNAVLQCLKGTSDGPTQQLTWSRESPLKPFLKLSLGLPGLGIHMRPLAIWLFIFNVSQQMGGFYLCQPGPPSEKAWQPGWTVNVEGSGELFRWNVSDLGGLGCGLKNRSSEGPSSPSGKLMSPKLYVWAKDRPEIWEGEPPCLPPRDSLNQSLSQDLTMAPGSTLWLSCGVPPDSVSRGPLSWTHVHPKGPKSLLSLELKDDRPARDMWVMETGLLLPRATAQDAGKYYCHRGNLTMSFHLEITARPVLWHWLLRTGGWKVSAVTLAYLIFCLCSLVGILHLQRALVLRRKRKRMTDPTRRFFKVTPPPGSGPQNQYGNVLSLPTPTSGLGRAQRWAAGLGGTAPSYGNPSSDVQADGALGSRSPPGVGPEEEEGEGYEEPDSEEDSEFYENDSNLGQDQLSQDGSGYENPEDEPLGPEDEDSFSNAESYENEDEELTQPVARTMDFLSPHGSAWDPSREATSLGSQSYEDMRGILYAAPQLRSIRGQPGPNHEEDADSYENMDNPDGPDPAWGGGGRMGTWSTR
- ASSAY OVERVIEW: cell-based or functional assay
READOUT KIND: EC50 of cytotoxicity (LDH), sCAR-T cells + switch vs CD19+ RS4;11, assay DTR-5-15 (PBMC)

So what's the measured EC50 of cytotoxicity (LDH), sCAR-T cells + switch vs CD19+ RS4;11, assay DTR-5-15 (PBMC) for this one? hFMCL2b/H4c-x-(Q1E)-WT (antibody, V domains shown) VH: EVQLQESGPGLVKPSETLSLTCTVSGVSLPDYGVSWIRQPPGKGLEWIGVIWGSETTYYNSALKSRVTISKDNSKNQFSLKLSSVTAADTAVYYCAKHYYYGGSYAMDYWGQGTLVTVSS VL: DIQMTQSPSSLSASVGDRVTITCRASQDISKYLNWYQQKPGKAVKLLIYHTSRLHSGVPSRFSGSGSGTDYTLTISSLQPEDFATYFCQQGATLPYTFGQGTKLEIK 28.3 pM

Fill blank: measured EC50 of cytotoxicity (LDH), sCAR-T cells + switch vs CD19+ RS4;11, assay DTR-5-15 (PBMC) of the binder hFMCL2b/H4b-x-(Q1E)-WT (antibody, V domains shown) VH: EVQLQESGPGLVKPSETLSLTCTVSGVSLPDYGVSWIRQPPGKGLEWIGVIWGSETTYYNPSLKSRVTISKDNSKNQFSLKLSSVTAADTAVYYCAKHYYYGGSYAMDYWGQGTLVTVSS VL: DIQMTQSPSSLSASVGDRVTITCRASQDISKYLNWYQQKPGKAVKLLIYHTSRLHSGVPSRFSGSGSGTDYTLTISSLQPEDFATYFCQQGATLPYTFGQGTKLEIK is ____. 29.6 pM
